- TARGET OR TEST SYSTEM: S1PR2 (Homo sapiens)
- Sequence (O95136 whole entry): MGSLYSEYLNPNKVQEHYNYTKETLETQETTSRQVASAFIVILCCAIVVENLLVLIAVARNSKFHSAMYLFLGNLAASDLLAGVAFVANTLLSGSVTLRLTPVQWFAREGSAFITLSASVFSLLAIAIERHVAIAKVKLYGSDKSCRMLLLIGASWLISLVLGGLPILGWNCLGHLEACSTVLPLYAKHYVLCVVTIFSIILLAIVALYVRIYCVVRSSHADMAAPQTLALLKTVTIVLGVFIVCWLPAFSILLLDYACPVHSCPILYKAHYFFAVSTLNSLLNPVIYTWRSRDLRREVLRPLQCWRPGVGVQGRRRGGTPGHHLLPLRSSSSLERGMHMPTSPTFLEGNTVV
- EXPERIMENT SUMMARY: S1PR2 CRE-bla CHO reporter agonist assay
- Assay type: cell-based
- MEASUREMENT CONTEXT: read-out: EC50 S1PR2; Table 3, synthesized compounds
PROPERTY MEASURED: pEC50
Please report pEC50 as the negative decimal logarithm of the molar concentration, giving only the number.

Query: Recorded pEC50 for Cc1cc(C(=O)Cn2cc(C#N)ccc2=O)c(C)n1Cc1ccccc1 [compound 14] , please?
Reply: 6.32

----------
- TARGET OR TEST SYSTEM: S1PR2 (Homo sapiens)
- EXPERIMENT SUMMARY: S1PR2 CRE-bla CHO reporter agonist assay
- Format: cell-based
- MEASUREMENT CONTEXT: read-out: EC50 S1PR2; Table 2, purchased analogues of XAX-164
PROPERTY MEASURED: pEC50
Please report pEC50 as the negative decimal logarithm of the molar concentration, giving only the number.

Query: Recorded pEC50 for `Cc1ccc(Sc2ccc(C3SCCS3)cc2[N+](=O)[O-])cc1` , please?
Reply: 6.26
